Data origin: patent US20200199204A1

- target: HIV-1 Env of ZM53.12 (HIV-1)
- procedure-summary: cell-based or functional assay
Listed here: items and their measured neutralization IC50.
Give your result in µg/mL as a bare value.

>  <binder>
CAP256-VRC26.01 (antibody, V domains shown) VH: EVQVVESGGGVVQPGRSLRLSCTASGFTFSNFAMGWVRQAPGKGLEWVAFISSDGSNKNYGDSVKGRFTISRDNSKNTVFLQMNSLRVEDTALYYCAKDVGDYKSDEWGTEYYDISISYPIQDPRAMVGAFDLWGQGTMVTVSP VL: QSVLTQPPSVSAAPGQKVTISCSGSSSTIGNNYVSWYRLLPGTAPKLLIYKNDNRPSGIPDRFSGSKSGTSATLGISGLQTGDEADYYCGTWDTSLSGGGVFGTGTKVTVLG

>  <observed-property>
neutralization IC50

>  <endpoint-result>
0.103

$$$$

Give the value of neutralization IC50 reported for the following: CAP256-VRC26.02 (antibody, V domains shown) VH: EVQLVESGGGVVQPGRSLRLSCAASQFSFGNYGMHWVRQAPGKGLEWVAAISFAGTKTNYADSVKGRFTISRDNSKNTVYLQMNSLRAEDTALYFCAKDIREYECEYWTSDYYDFGRPQPCIDSRGVVGTFDVWGQGTMVTVSS VL: QSVLTQPPSVSAAPGQKVTISCSGSNSNIGNKDVSWYQQIPATAPKLLIYENNKRPSGISDRFSGSKSGTSATLAITGLQTGDEADYYCATWDGRVSVIGTGTNVIVLG
0.043
